Read-out: Tissue plasminogen activator (tPA), PLAT (gene 5327)
Assay: BSK_BE3C_tPA: BioMAP Diversity Plus: BE3C Assay for Tissue plasminogen activator (tPA) Biomarker Activity (AID 2283041)
Settings: primary human bronchial epithelial cells; actives raise or lower the signal
The source made the active and inactive calls. The calls were made as follows: active = hit-call score of the fitted dose curve at least 0.9, where 1 is the maximum; inactive = score below 0.9.
Output constraint: value belongs to YES (active), NO (inactive)

As a guide, the following entries are already answered.
{"columns": ["molecule", "answer_label"],
 "data": [
  ["COC(OC)(C(=O)c1ccccc1)c1ccccc1", "NO"],
  ["O=C(Cl)c1c(Cl)c(Cl)c(C(=O)Cl)c(Cl)c1Cl", "NO"],
  ["CCNc1nc(NC(C)(C)C)nc(OC)n1", "NO"]
]}

Q: What call does the record list for `O=C(O)C(F)(F)C(F)(F)C(F)(F)C(F)(F)C(=O)O` ?
Result: NO

Q: Likewise for `Cc1c(O)cccc1O` ?
Result: NO

Q: Likewise for `Cc1ccc([N+](=O)[O-])cc1N` ?
Result: NO

Q: Likewise for `CC=C(C)C=CC=C(C)C` ?
Result: YES

Q: Likewise for `Oc1ccc(/C=C/c2cc(O)cc(O)c2)cc1` ?
Result: NO

Q: Likewise for CC(Cl)COP(=O)(OCC(C)Cl)OCC(C)Cl (centres undefined) ?
Result: NO

Q: Likewise for `C=CCCCCCCCCC=O` ?
Result: NO
